Biological target: androgen receptor (AR) (Homo sapiens, UniProt P10275, Q868H)
Construct: MDA-kb2 cells are human breast cancer cells stably transfected with a firefly luciferase reporter gene; endogenous in cells; host or cells: MDA-kb2 (human breast cancer cells)
Sequence (P10275 whole entry Q868H): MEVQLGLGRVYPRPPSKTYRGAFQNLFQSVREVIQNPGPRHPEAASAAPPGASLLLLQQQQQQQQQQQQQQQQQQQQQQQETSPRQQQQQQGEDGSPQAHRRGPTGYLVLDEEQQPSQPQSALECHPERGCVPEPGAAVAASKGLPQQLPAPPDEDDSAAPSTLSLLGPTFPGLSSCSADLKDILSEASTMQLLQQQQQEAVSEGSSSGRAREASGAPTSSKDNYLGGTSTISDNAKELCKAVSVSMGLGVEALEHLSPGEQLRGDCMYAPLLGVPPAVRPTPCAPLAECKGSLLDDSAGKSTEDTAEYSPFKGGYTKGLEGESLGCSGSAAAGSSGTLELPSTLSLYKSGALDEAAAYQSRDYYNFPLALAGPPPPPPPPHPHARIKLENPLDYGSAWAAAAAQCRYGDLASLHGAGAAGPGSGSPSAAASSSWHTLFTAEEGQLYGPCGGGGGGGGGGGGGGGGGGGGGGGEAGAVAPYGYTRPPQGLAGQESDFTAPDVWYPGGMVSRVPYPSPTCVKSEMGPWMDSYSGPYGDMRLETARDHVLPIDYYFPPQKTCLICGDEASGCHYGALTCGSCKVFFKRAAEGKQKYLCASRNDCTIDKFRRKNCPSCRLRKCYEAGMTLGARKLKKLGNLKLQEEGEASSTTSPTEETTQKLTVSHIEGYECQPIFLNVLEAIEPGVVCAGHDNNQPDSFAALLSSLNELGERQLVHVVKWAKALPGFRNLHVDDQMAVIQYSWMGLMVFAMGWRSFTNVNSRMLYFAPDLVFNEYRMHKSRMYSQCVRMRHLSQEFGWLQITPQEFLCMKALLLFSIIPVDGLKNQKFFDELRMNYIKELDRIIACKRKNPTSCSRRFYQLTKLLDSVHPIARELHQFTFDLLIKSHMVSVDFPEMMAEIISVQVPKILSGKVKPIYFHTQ
Assay: cell-based
Details: MDA-kb2 / 'our assay'
value_kind: Antiandrogenic activity in the MDA-kb2 assay (in words)

                                   molecule          recorded_result
0  CC(C)OC(=O)C(O)(c1ccc(Br)cc1)c1ccc(Br)cc1 [Bromopropylate]  in vitro AR antagonists
1  CC12CC1(C)C(=O)N(c1cc(Cl)cc(Cl)c1)C2=O (centres unmarked) [Procymidone, reference compound]  in vitro AR antagonists
2             CCOc1ccc2c(c1)C(C)=CC(C)(C)N2  in vitro AR antagonists

====

Biological target: androgen receptor (AR) (Homo sapiens, UniProt P10275, Q868H)
Construct: MDA-kb2 cells are human breast cancer cells stably transfected with a firefly luciferase reporter gene; endogenous in cells; host or cells: MDA-kb2 (human breast cancer cells)
Format: cell-based
Conditions: androgenic in the absence of DHT; Neg = no response was observed
value_kind: Androgen EC20 (μM) MDA-kb2

// below: answered compounds
                                   compound  recorded_result
0  Cc1ccc(N(SC(F)(Cl)Cl)S(=O)(=O)N(C)C)cc1 [Tolylfluanid]              Neg
1  CC(C)OC(=O)C(O)(c1ccc(Br)cc1)c1ccc(Br)cc1 [Bromopropylate]              Neg
2  COP(=S)(OC)SCn1nnc2ccccc2c1=O [Azinphos-methyl]              Neg
3  COc1ccc(C(=CC(=O)N2CCOCC2)c2ccc(Cl)cc2)cc1OC [Dimethomorph]              Neg

In one line, give reported Androgen EC20 (μM) MDA-kb2 of the entry CO/C=C(/C(=O)OC)c1ccccc1Oc1cc(Oc2ccccc2C#N)ncn1 [Azoxystrobin] .
Neg

Give Androgen EC20 (μM) MDA-kb2 for the following compound: CNC(=O)Oc1cc(C)c(SC)c(C)c1 [Methiocarb]
Neg

Entry C#CCOc1ccc(CCNC(=O)C(OCC#C)c2ccc(Cl)cc2)cc1OC (stereo not shown) [Mandipropamid] needs its Androgen EC20 (μM) MDA-kb2 filled in; supply it.
Neg

====

System: MDA-kb2 cells
Details: EC20 = concentration that produces a 20% effect
value_kind: Cytotoxic EC20 (μM) MDA-kb2 (µM)
Expressed in µM, but write only the number.

Output Cytotoxic EC20 (μM) MDA-kb2 of "CCCN(CCOc1c(Cl)cc(Cl)cc1Cl)C(=O)n1ccnc1"
12.5

Recall and state the measured Cytotoxic EC20 (μM) MDA-kb2 for "CO/C=C(/C(=O)OC)c1ccccc1Oc1cc(Oc2ccccc2C#N)ncn1" .
2.9

Give Cytotoxic EC20 (μM) MDA-kb2 for CC(C)(C)C(O)(CCc1ccc(Cl)cc1)Cn1cncn1 (centres unmarked)
38.9

Answer with the recorded Cytotoxic EC20 (μM) MDA-kb2 for the molecule listed here: CCCSP(=O)(OCC)Oc1ccc(Br)cc1Cl (centres unmarked)
8.61

Annotate the molecule "CC1(C(=O)Nc2ccc(O)c(Cl)c2Cl)CCCCC1" with its measured Cytotoxic EC20 (μM) MDA-kb2.
21.6

Dear colleague, please send me the reported Cytotoxic EC20 (μM) MDA-kb2 for "OC(c1ccc(Cl)cc1)(c1ccc(Cl)cc1)C(Cl)(Cl)Cl" when you can.
29.0

Specify reported Cytotoxic EC20 (μM) MDA-kb2 for the molecule shown: C#CCOS(=O)OC1CCCCC1Oc1ccc(C(C)(C)C)cc1 (centres unmarked)
0.487

Entry CC(C)OC(=O)C(O)(c1ccc(Br)cc1)c1ccc(Br)cc1 [Bromopropylate] needs its Cytotoxic EC20 (μM) MDA-kb2 filled in; supply it.
27.2

Assign Cytotoxic EC20 (μM) MDA-kb2 to the following record: "COC(=O)N(C(=O)N1CO[C@@]2(C(=O)OC)Cc3cc(Cl)ccc3C2=N1)c1ccc(OC(F)(F)F)cc1"
11.3

Consider the molecule C#CCOc1ccc(CCNC(=O)C(OCC#C)c2ccc(Cl)cc2)cc1OC (centres unmarked) and give its recorded Cytotoxic EC20 (μM) MDA-kb2.
8.92
